- TESTED TARGET: human 11β-HSD1 enzyme (Homo sapiens, UniProt P28845)
- Construct: stably transfected with a construct containing the full-length gene coding for the human 11β-HSD1 enzyme; expressed in transfected cells; HEK293/11β-HSD1 cells)
- Sequence (P28845 whole entry): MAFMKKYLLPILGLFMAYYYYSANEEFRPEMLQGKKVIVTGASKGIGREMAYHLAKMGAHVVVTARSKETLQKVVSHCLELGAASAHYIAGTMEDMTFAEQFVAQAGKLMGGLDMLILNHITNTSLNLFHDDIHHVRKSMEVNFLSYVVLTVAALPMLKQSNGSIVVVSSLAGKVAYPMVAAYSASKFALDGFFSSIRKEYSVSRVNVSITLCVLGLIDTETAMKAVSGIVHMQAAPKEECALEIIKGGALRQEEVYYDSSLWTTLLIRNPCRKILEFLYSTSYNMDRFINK
- TEST SUMMARY: Cellular in vitro 11β-HSD1 enzyme inhibition assay (SPA, HEK293/11β-HSD1 cells)
- Format: cell-based
pIC50: −log10 of the molar value.
pIC50 reference

COMPOUND | pIC50
N#CC1(c2ccccc2Cl)CCN(C(=O)c2csc(-c3cn[nH]c3)c2)CC1 | 5.00 to 6.00
N#CC1(c2ccccc2)CCN(C(=O)c2csc(-c3cn[nH]c3)c2)CC1 | 5.00 to 6.00
